Cited source for all entries: patent US5017619A

Tested on: male albino rats
ASSAY INFO: Activity on oxygen consumption
Type: in vivo
PARTICULARS: po, 12 h; rat, per os, 1 μM/kg, 1st-12th hour, corrected for placebo group; read-out: O2 consumption, % of value of the pre-period, 1st-12th hour
MEASURED PROPERTY: response vs control in vivo at 1 µM, 1 µmol/kg (%)
Give just the number in %; leave the unit off.

Look up response vs control in vivo at 1 µM, 1 µmol/kg for this compound: COCCOCCOc1ccc(C[C@@H](C)N(C[C@H](O)c2ccccc2)C[C@H](O)c2ccccc2)cc1 [Example 2b]
119

One more compound: CCOCCOc1ccc(CCN(C[C@H](O)c2ccccc2)C[C@H](O)c2ccccc2)cc1 [Example 2f]
112

One more compound: O[C@H](CN(CCc1ccc(OCCOCCc2ccccc2)cc1)C[C@H](O)c1cccc(Cl)c1)c1cccc(Cl)c1 [Example 12a]
116

One more compound: C[C@H](Cc1ccc(OCCOCCc2ccccc2)cc1)N(C[C@H](O)c1ccccc1)C[C@H](O)c1ccccc1 [Example 1]
117

One more compound: CC(Cc1ccc(OCCOCCc2ccccc2)cc1)N(CC(O)c1cccc(Cl)c1)CC(O)c1cccc(Cl)c1 (stereo not shown) [Example 2g2]
131

One more compound: C[C@H](Cc1ccc(OCCOCCc2ccc(F)cc2)cc1)N(C[C@H](O)c1ccccc1)C[C@H](O)c1ccccc1 [Example 2c]
122

One more compound: C[C@H](Cc1ccc(OCCOCc2ccc(Oc3ccccc3)cc2)cc1)N(C[C@H](O)c1ccccc1)C[C@H](O)c1ccccc1 [Example 2e]
116
